Where do these numbers come from? They come from a melting point compilation (Tetko et al.).

Listing of recorded melting point by entry.

Examples with their reported melting point follow.
| molecule | metric | test-result |
| --- | --- | --- |
| Nc1c(F)cc(Br)cc1F | melting point | 67 to 68 °C |
| COC(=O)C1Nc2ccccc2C1(C)C (stereo unspecified) | melting point | 168 to 170 °C |
| Cc1cc(-c2ccccc2)nc2cc3nc(-c4ccccc4)cc(C)c3cc12 | melting point | 284 to 285 °C |
| CC(/C=C(\C)c1ccc(-c2ccccc2)cc1)=NNS(=O)(=O)c1ccc(C)cc1 | melting point | 132 to 134 °C |
| C=CCC1(c2ccccc2)C(=O)NC(=O)NC1=O | melting point | 156 °C |

Then this molecule:
// fetch melting point given entry FC(F)(F)c1cnc(N2CCNCC2)c(Cl)c1
65 to 67 °C

###

Entries and their melting point values follow.

| compound | test-result |
| --- | --- |
| COC(=O)C1=C(C)NC(=S)NC1c1ccccc1 (stereo not drawn) | 224 to 225 °C |
| Cc1onc(-c2ccccc2)c1C(=O)Cl | 24 to 25 °C |
| Cc1cc(Br)c(N)cc1OCc1ccccc1 | 137 to 138 °C |
| O=C(Nc1ccccc1)OC1CCCCCC1OC(=O)Nc1ccccc1 (stereo not drawn) | 217 to 219 °C |
| CC[C@H](CO)N1Cc2ccccc2C1 | 56 to 61 °C |

Indicate its recorded melting point; the compound in question is CCOC(=O)c1c(NC(=S)Nc2cccc(Cl)c2)sc2c1CCCC2
175 to 177 °C

Using the record for CC(C)(C)c1cc(C=O)cc(C(C)(C)C)c1 , state its measured melting point.
82 to 87 °C

Identify the reported melting point for the following entry. Ic1ccc(Cn2cncn2)cc1
82 to 84 °C

###

metric: melting point

| compound | melting point |
| --- | --- |
| Cc1nn(-c2ccccc2)nc1C(=O)NNC(=S)Nc1ccccc1 | 205 to 206 °C |

Supply measured melting point of Oc1cc(C(F)(F)F)nc2ccc(OC(F)(F)F)cc12 in your reply.
229 to 232 °C

Please give the documented melting point of CCCc1c(C(=O)OCC)cnn1-c1ccc(Cl)cc1
63 to 65 °C

Given the compound CCCOC1CCC2C3CCC4=CC(=O)CCC4(C)C3CCC12C (stereo not given) , write its reported melting point.
117 to 119 °C

Please give measured melting point of the following entry: CCc1cc(C(=O)c2ccc(OC)cc2)c(N)s1
100 to 102 °C

Give the value of melting point reported for the following: C#Cc1ccc(OC)cc1
28 to 30 °C

Determine its reported melting point: COc1ccc(N=C(CNc2ccc(OC)cc2)Nc2ccc(OC)cc2)cc1
158 to 159 °C

For the compound O=Cc1ccc(N2CCCCC2)cc1 , give its measured melting point value.
62 to 63 °C

Return melting point for the following compound: NCCSS(=O)(=O)O
191 to 194 °C

Name the recorded melting point of the compound listed here: Cc1noc(-c2ccccc2C=O)n1
66 to 68 °C

###

Property: melting point; scope: individual compounds

Consider the following illustrative entries.
| line-notation | metric | test-result |
| --- | --- | --- |
| CCOC(=O)c1cnc2c(c(C)nn2C)c1Cl | melting point | 87 to 90 °C |
| COc1cc(C(c2ccc(C)o2)c2ccc(C)o2)c([N+](=O)[O-])cc1OC | melting point | 98 °C |

# input for lookup
Name the recorded melting point of the item O=C1OC(c2ccccc2)=NC1=Cc1ccc(Br)cc1 in your answer.
192 to 193 °C
